# Test system: HCT-8
# Protocol description: Cytotoxicity against human HCT8 cells
# Type: functional, cell-based
IC50 strictly under 3 µM means rule met; at 3 µM or over means rule not met.

# Query smiles, Cat
data = [
    ("CC(=O)O[C@H]1C(=O)[C@@]2(C)[C@H]([C@H](OC(=O)c3ccccc3)[C@]3(O)C[C@H](OC(=O)[C@H](O)[C@@H](NC(=O)c4ccccc4)c4ccccc4)C(C)=C1C3(C)C)[C@]1(OC(C)=O)CO[C@@H]1C[C@@H]2O", "rule not met"),
]

**Q:** Input `CC(=O)O[C@@]12CO[C@@H]1C[C@H](O)[C@@]1(C)C(=O)[C@H](O)C3=C(C)[C@@H](OC(=O)[C@H](O)[C@@H](NS(=O)(=O)C(C)(C)C)c4cccc[n+]4[O-])C[C@@](O)([C@@H](OC(=O)c4ccccc4)[C@H]21)C3(C)C` ; condition: IC50 strictly below 3 µM. Does it hold?
**A:** rule met

**Q:** # repeat for `CC(=O)O[C@@]12CO[C@@H]1C[C@H](O)[C@@]1(C)C(=O)[C@H](O)C3=C(C)[C@@H](OC(=O)[C@H](O)[C@@H](NS(=O)(=O)C(C)(C)C)c4ccccc4)C[C@@](O)([C@@H](OC(=O)c4ccccc4)[C@H]21)C3(C)C`
**A:** rule not met

====

# Tested on: SMMC-7721
# Protocol description: Cytotoxicity against human SMMC7721 cells
# Format: functional, cell-based
We begin with a simple list: items and their reported pIC50.
// field semantics: pIC50 = negative decimal log of concentration (mol/L)

# Compound, Target under test, pIC50
measured = [
    ("CC(=O)O[C@@]12CO[C@@H]1C[C@H](O)[C@@]1(C)C(=O)[C@H](O)C3=C(C)[C@@H](OC(=O)[C@H](O)[C@@H](NS(=O)(=O)C(C)(C)C)c4cccc[n+]4[O-])C[C@@](O)([C@@H](OC(=O)c4ccccc4)[C@H]21)C3(C)C", "SMMC-7721", 5.60),
    ("CC(=O)O[C@H]1C(=O)[C@@]2(C)[C@H]([C@H](OC(=O)c3ccccc3)[C@]3(O)C[C@H](OC(=O)[C@H](O)[C@@H](NC(=O)c4ccccc4)c4ccccc4)C(C)=C1C3(C)C)[C@]1(OC(C)=O)CO[C@@H]1C[C@@H]2O [PACLITAXEL]", "SMMC-7721", 5.54),
    ("CC(=O)O[C@@]12CO[C@@H]1C[C@H](O)[C@@]1(C)C(=O)[C@H](O)C3=C(C)[C@@H](OC(=O)[C@H](O)[C@@H](NC(=O)OC(C)(C)C)c4ccccc4)C[C@@](O)([C@@H](OC(=O)c4ccccc4)[C@H]21)C3(C)C [DOCETAXEL]", "SMMC-7721", 5.56),
]

From here, focus on the item given below.
**Q:** Bench note: what pIC50 did `CC(=O)O[C@@]12CO[C@@H]1C[C@H](O)[C@@]1(C)C(=O)[C@H](O)C3=C(C)[C@@H](OC(=O)[C@H](O)[C@@H](NS(=O)(=O)C(C)(C)C)c4ccc[n+]([O-])c4)C[C@@](O)([C@@H](OC(=O)c4ccccc4)[C@H]21)C3(C)C` show?
**A:** 5.61
